Reported koff by item:
- Subject of test: T1, Human IL-18BP (isoform A) (human, UniProt O95998 31-194, biotinylated (site not stated))
- T1 construct: also called decoy receptor
- T1 sequence: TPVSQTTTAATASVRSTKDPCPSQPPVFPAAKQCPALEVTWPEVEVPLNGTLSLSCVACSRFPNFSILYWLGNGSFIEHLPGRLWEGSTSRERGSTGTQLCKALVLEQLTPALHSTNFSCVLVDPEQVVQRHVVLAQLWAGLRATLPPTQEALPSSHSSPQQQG
- Assay procedure: SPR, Biacore 8K, 37 C, biotinylated target on SA chip, single-cycle kinetics
Reported metric: koff (s⁻¹)

INSERT INTO measurements (binder, recorded_measurement) VALUES
  ('Human IL-18 A162C/I185C (ligand, Made in mammalian cells) YFGKLESKLSVIRNLNDQVLFIDQGNRPLFEDMTDSDSRDNAPRTIFIISMYKDSQPRGMAVTISVKSEKISTLSSENKIISFKEMNPPDNIKDTKSDIIFFQRSVPGHDNKMQFESSSYEGYFLCSEKERDLFKLILKKEDELGDRSCMFTVQNED', '1.89e-05'),
  ('Human IL-18 hCS (ligand) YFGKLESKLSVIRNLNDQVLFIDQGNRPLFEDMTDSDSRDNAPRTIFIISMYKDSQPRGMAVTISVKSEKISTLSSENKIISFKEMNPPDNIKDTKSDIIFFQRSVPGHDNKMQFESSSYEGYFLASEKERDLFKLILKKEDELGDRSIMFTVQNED', '4.9e-05'),
  ('Human IL-18 Y37C/S91C (ligand, Made in mammalian cells) CFGKLESKLSVIRNLNDQVLFIDQGNRPLFEDMTDSDSRDNAPRTIFIISMYKDCQPRGMAVTISVKSEKISTLSSENKIISFKEMNPPDNIKDTKSDIIFFQRSVPGHDNKMQFESSSYEGYFLASEKERDLFKLILKKEDELGDRSIMFTVQNED', 0.00018);

meta.source: patent US20240409599A1
